- ASSAY_PROTOCOL: NF-kB reporter blockers in CF airway cells – cell-based, GFP fluorescence, uHTS, primary screen (AID 588850);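 also: PAF is a Pseudomonas aeruginosa culture filtrate used as stimulus; plate controls were PAF-stimulated DMSO wells for no effect and unstimulated DMSO wells for full effect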
- EXPERIMENTAL_SETUP: KKLEB NF-kB-GFP reporter, PAF-induced, GFP fluorescence overnight; at 5 µM; stronger effect = higher value
The campaign covered roughly 360,000 compounds. About 3,100 (0.86%) were called active. For the sample, actives were picked, then their nearest neighbours and some compounds at random.
The following compounds are shown together with reported inhibition values.
Number only, in %; omit the unit.

Examples with answers:
{"columns": ["COMPOUND", "inhibition / %"],
 "data": [
  ["C/C(=N\\NS(=O)(=O)c1ccc(Cl)cc1)c1ccc(NC(=O)c2ccco2)cc1", -14],
  ["S=C(NN=Cc1ccccn1)Nc1ccccn1", 73.7],
  ["NC(=O)C[n+]1cccc(C(N)=O)c1", 0.4],
  ["NNc1cccc(C=Cc2ccccc2)cc1=O", 3.8],
  ["COc1ccc(C(=NN)c2ccc(OC)cc2)cc1", -2.7],
  ["COCCn1c(C)cc(C(=O)CN2c3cccc4cccc(c34)S2(=O)=O)c1C", 18.2],
  ["Cc1cc(=O)c2ccc(NC(=O)c3ccccc3)cc2[nH]1", 3.1],
  ["O=S(=O)(c1ccc(-c2ccno2)s1)N1CCCCC1", 7.2],
  ["Cc1cccc(C)c1NC(=O)C(Cl)C(=O)c1ccccc1 (stereo not drawn)", -23.4],
  ["C=C1C(=O)[C@]23C[C@H]1CCC2[C@@]1(C)C(C[C@@H]3O)[C@](C)(C(=O)O)CC[C@@H]1O (stereo partly drawn)", 82.6]
]}

Query string: What value of inhibition has been recorded for this entry: "COc1ccccc1/C=C/CN1CCC(CO)(Cc2ccccc2)CC1"
Result string: 20.7

Query string: What value of inhibition has been recorded for this entry: "COc1ccc(/C(N)=N/OC(=O)Cc2ccccc2)cc1"
Result string: -28

Query string: What value of inhibition has been recorded for this entry: "CC(=O)O[C@]1(C(C)=O)CC[C@H]2[C@@H]3C=C(C)C4=CC(=O)CC[C@]4(C)[C@H]3CC[C@@]21C"
Result string: 39.9

Query string: What value of inhibition has been recorded for this entry: "Cc1ccccc1C(=O)Nc1cccc(-c2nnc(SCC(=O)O)n2C)c1"
Result string: 0.8

Query string: What value of inhibition has been recorded for this entry: CC1C(=O)Nc2ccccc2N1C(=O)c1c(F)cccc1F (stereo not drawn)
Result string: -2.1

Query string: What value of inhibition has been recorded for this entry: "CN(C)S(=O)(=O)c1ccc(N2CCCC2)c(C(=O)Nc2ccc(Br)cc2F)c1"
Result string: 21.3

Query string: What value of inhibition has been recorded for this entry: CC(NS(=O)(=O)c1ccccc1)c1n[nH]c(=S)n1-c1ccccc1 (stereo not drawn)
Result string: -11.4

Query string: What value of inhibition has been recorded for this entry: "COc1ccc(CNC(=O)C[C@H]2C[C@H](C(=O)N3CCOCC3)[C@@]3(CCC4CCCC4)c4[nH]c5ccc(Cl)cc5c4CCN3C2=O)cc1OC"
Result string: 8.2

Query string: What value of inhibition has been recorded for this entry: CC1(C(=O)O)CCN1C(=O)/C=C/c1ccccc1 (stereo not drawn)
Result string: 11.9

Query string: What value of inhibition has been recorded for this entry: "Cc1ccc(S(=O)(=O)N/N=C(\c2ccccc2)C2CC2)cc1"
Result string: 14.8

Query string: What value of inhibition has been recorded for this entry: "S=C(Nc1cccnc1)Nc1ccccn1"
Result string: -6.9

Query string: What value of inhibition has been recorded for this entry: "CN(CC(=O)NCCc1ccccn1)S(=O)(=O)c1ccc(Cl)cc1"
Result string: -8
